- TEST_TARGET: T1, Bio-P19 member A2E-13 (chain 2: C-terminal BirA substrate peptide (BSP), enzymatically biotinylated; its letters are not printed in the patent and it is left out)
- T1 construct: also called biotinylated control peptide A2E-13/HLA-A*02:01 monomer
- T1 sequence (b2m, as listed by the source): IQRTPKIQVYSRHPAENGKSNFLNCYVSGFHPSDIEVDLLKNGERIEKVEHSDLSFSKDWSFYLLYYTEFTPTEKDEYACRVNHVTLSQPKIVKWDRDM
- EXPERIMENTAL_PROTOCOL: phage ELISA, streptavidin plate, anti-M13-HRP
MEASURED_METRIC: binding result

PSA146/HLA-A*02:01-specific scFv phage clone #13 (scFv, V domains shown) VH: QVQLVQSGAEVKKPGASVKVSCKASGYTFTSYYMHWVRQAPGQGLEWMGGFDPEDGETIYAQKFQGRVTMTEDTSTDTAYMGLSSLRSEDTAVYYCARYSYDYWGQGTLVTVSS VL: QAVVTQEPSLTVSPGGTVTLTCASSTGAVTSGYYPNWFQQKPGQAPRALIYSTSNKHSWTPARFSGSLLGGKAALTLSGVQPEDEAEYYCLLYYGGAYVFGTGTKVTVLG = no binding
PSA146/HLA-A*02:01-specific scFv phage clone #5 (scFv, V domains shown) VH: QVQLVQSGAEVKKPGDSVKVSCKPSGYNFLNYGINWVRQAPGQGLEWMGWISTYTGNTNYAQKLQGRVTFTTDTSTSTAYMEMRSLRSDDTAVYYCARSSEYYTWDHWGQGTLVTVSS VL: QSVLTQPPSVSGAPGQRVTISCTGSSSNIGAGYDVHWYQQLPGTAPKLLIYGNSNRPSGVPDRFSGSKSGTSASLAITGLQAEDEADYYCQSYDSSLSGWVFGGGTKLTVLG = no binding
PSA146/HLA-A*02:01-specific scFv phage clone #9 (scFv, V domains shown) VH: QVQLVQSGAEVKKPGASVKVSCKASGYTFTSYGISWVRQAPGQGLEWMGWISAYNGNTNYAQKLQGRVTMTTDTSTSTAYMELRSLRSDDTAVYYCARSSQYYVWDSWGQGTLVTVSS VL: QSVVTQPPSVSGAPGQRVTISCTGSSSNFGAGYDVHWYQQLPGTAPKLLIYGNSNRPSGVPDRFSGSKSGTSASLAITGLQAEDEADYYCQSYDSSLSGWVFGGGTKLTVLG = no binding

Just for reference, patent US20200087400A1 is where these values come from.
